test system: 192522-019-R-J2-PDC complex tumor spheroid viability; experiment: Anticancer human tumor 192522-019-R-J2-PDC patient-derived colon adenocarcinoma cell line growth inhibition [POLQ]; conditions: second compound 0.316 µM; first compound 0.1 µM; stronger effect = lower value
Measurement Type: viability, T/C (%)
Write the answer as a number in %, unit excluded.

# query: viability, T/C | item C=CCn1c(=O)c2cnc(Nc3ccc(N4CCN(C)CC4)cc3)nc2n1-c1cccc(C(C)(C)O)n1 + Nc1ccc(C#CCN(C(=O)Cc2ncc(C(F)(F)F)cc2C(F)(F)F)c2ccc(F)cc2)nn1 | system: 192522-019-R-J2-PDC complex tumor spheroid viability;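 further: spheroids exposed to drugs for seven days before reading; 100% = DMSO vehicle control viability in luminescence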
99.8

Item: CC1COCCN1c1cc(-c2ccnn2C)c2ccnc(-c3ccn[nH]3)c2n1 (stereo unspecified) + Cc1cccc(N(C)C(=O)C2C(O)CCN2c2nc(C)cc(C(F)(F)F)c2C#N)c1 Test system: 192522-019-R-J2-PDC complex tumor spheroid viability Read-out: viability, T/C Value: ?;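 further: spheroids exposed to drugs for seven days before reading; 100% = DMSO vehicle control viability in luminescence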
77.2

What value of viability, T/C on 192522-019-R-J2-PDC complex tumor spheroid viability does CC[C@@]1(O)C(=O)OCc2c1cc1n(c2=O)Cc2cc3c(CN(C)C)c(O)ccc3nc2-1 + Nc1ccc(C#CCN(C(=O)Cc2ncc(C(F)(F)F)cc2C(F)(F)F)c2ccc(F)cc2)nn1 have?
77.7

Item O=C(c1cc(Cc2n[nH]c(=O)c3ccccc23)ccc1F)N1CCN(C(=O)C2CC2)CC1 + Cc1cccc(N(C)C(=O)C2C(O)CCN2c2nc(C)cc(C(F)(F)F)c2C#N)c1 with 192522-019-R-J2-PDC complex tumor spheroid viability - viability, T/C?
94.9

Please state recorded viability, T/C (tested on 192522-019-R-J2-PDC complex tumor spheroid viability) of Cn1ncnc1[C@H]1c2n[nH]c(=O)c3cc(F)cc(c23)N[C@@H]1c1ccc(F)cc1 + Cc1cccc(N(C)C(=O)C2C(O)CCN2c2nc(C)cc(C(F)(F)F)c2C#N)c1;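 further: spheroids exposed to drugs for seven days before reading; 100% = DMSO vehicle control viability in luminescence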
102

Enter reported viability, T/C observed with 192522-019-R-J2-PDC complex tumor spheroid viability for CCCS(=O)(=O)Nc1ccc(F)c(C(=O)c2c[nH]c3ncc(-c4ccc(Cl)cc4)cc23)c1F + Cc1cccc(N(C)C(=O)C2C(O)CCN2c2nc(C)cc(C(F)(F)F)c2C#N)c1
101

Record C=CC(=O)N1CCN(c2nc(=O)n(-c3c(C)ccnc3C(C)C)c3nc(-c4c(O)cccc4F)c(F)cc23)C(C)C1 (stereo unspecified) + COC1C(OC(N)=O)C(O)C(Oc2ccc3c(O)c(NC(=O)c4ccc(O)c(CC=C(C)C)c4)c(=O)oc3c2C)OC1(C)C : what is its viability, T/C with 192522-019-R-J2-PDC complex tumor spheroid viability?
101

Please state recorded viability, T/C (tested on 192522-019-R-J2-PDC complex tumor spheroid viability) of CCc1cc2c(N3CCc4c(cc(Cn5ccnc5)cc4-c4cn(C)nc4C(F)(F)F)C3=O)ccnc2c(OC)n1 + Nc1ccc(C#CCN(C(=O)Cc2ncc(C(F)(F)F)cc2C(F)(F)F)c2ccc(F)cc2)nn1;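 further: spheroids exposed to drugs for seven days before reading; 100% = DMSO vehicle control viability in luminescence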
99

Hi! What's the reported viability, T/C for Nc1ccn(C2OC(CO)C(O)C2(F)F)c(=O)n1 (stereo unspecified) + Cc1cccc(N(C)C(=O)C2C(O)CCN2c2nc(C)cc(C(F)(F)F)c2C#N)c1 on 192522-019-R-J2-PDC complex tumor spheroid viability?
95.3

Give recorded viability, T/C with 192522-019-R-J2-PDC complex tumor spheroid viability for the following molecule: CC(C)n1c(=O)n(C)c2cnc3cc(F)c(-c4ccc(OCCCN5CCCCC5)nc4)cc3c21 + COC1C(OC(N)=O)C(O)C(Oc2ccc3c(O)c(NC(=O)c4ccc(O)c(CC=C(C)C)c4)c(=O)oc3c2C)OC1(C)C
95.5

Under 192522-019-R-J2-PDC complex tumor spheroid viability: viability, T/C value of Nc1ccn(C2OC(CO)C(O)C2(F)F)c(=O)n1 (stereo unspecified) + Nc1ccc(C#CCN(C(=O)Cc2ncc(C(F)(F)F)cc2C(F)(F)F)c2ccc(F)cc2)nn1 ?
90.9
